B1: ESRRA (parent)
chain: SLPLQDELAFAEDLVLDEEGARAA

- Variants of: B1
- MEASUREMENT_PROTOCOL: protein stability index of a GFP-peptide fusion (GPS, HEK-293T) (PSI 1-6); higher = more stable;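 further: lentivirally expressed fusions sorted by FACS into six bins by GFP to DsRed ratio, PSI derived from sequencing read proportions per bin multiplied by bin number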
- COND: c terminus: a fixed tail appended
Given measured protein stability index, output rule met if it is greater than or equal to 3 and rule not met if not.

Tell me whether protein stability index is at least 3 here: `E19D`
rule not met

Tell me whether protein stability index is at least 3 here: `R22N`
rule met

Tell me whether protein stability index is at least 3 here: `L4Y`
rule met

Tell me whether protein stability index is at least 3 here: `A21K`
rule not met

Tell me whether protein stability index is at least 3 here: `D13Y`
rule not met

Tell me whether protein stability index is at least 3 here: `V15G`
rule met

Tell me whether protein stability index is at least 3 here: `L16T`
rule met
